# System: SK-OV-3 ovarian
# ASSAY_PROCEDURE: NCI tumour cell line growth inhibition, 48 h
TGI reference

Worked set:
| COMPOUND | TARGET_OR_TEST_SYSTEM | TGI |
| --- | --- | --- |
| O=C([CH-]C(=O)c1ccccc1)c1ccccc1.O=C([CH-]C(=O)c1ccccc1)c1ccccc1.[Nd+3].[OH-].[OH3+] | SK-OV-3 ovarian | 48.2 µM |
| CCOC(=O)C(=O)Nc1c(N(CC)CC)n2ccccc2nc1=O | SK-OV-3 ovarian | > 100 µM |
| CC(C)CC1c2[nH]c3ccccc3c2C[C@H]2C(=O)NC(CCC(=O)OC(C)(C)C)C(=O)N12 (some centres undefined) | SK-OV-3 ovarian | > 100 µM |
| O=C1OC(=O)C2C1C1(c3ccccc3)C(c3ccccc3)=C(c3ccccc3)C2(c2ccccc2)S1=O (centres undefined) | SK-OV-3 ovarian | > 100 µM |

**Query** Could you please provide reported TGI for CN(c1ccccc1)C(c1ccccc1)C(O)c1ccccc1 (centres undefined) ? Thanks!
**Result** 52.1 µM

**Query** Could you please provide reported TGI for COC(=O)c1ccc(N=NN(C)CO)cc1 ? Thanks!
**Result** > 100 µM
